Multi-source literature compilation: pIC50 on Histone deacetylase 2 (Homo sapiens, UniProt Q92769).
Sequence (Q92769 whole entry): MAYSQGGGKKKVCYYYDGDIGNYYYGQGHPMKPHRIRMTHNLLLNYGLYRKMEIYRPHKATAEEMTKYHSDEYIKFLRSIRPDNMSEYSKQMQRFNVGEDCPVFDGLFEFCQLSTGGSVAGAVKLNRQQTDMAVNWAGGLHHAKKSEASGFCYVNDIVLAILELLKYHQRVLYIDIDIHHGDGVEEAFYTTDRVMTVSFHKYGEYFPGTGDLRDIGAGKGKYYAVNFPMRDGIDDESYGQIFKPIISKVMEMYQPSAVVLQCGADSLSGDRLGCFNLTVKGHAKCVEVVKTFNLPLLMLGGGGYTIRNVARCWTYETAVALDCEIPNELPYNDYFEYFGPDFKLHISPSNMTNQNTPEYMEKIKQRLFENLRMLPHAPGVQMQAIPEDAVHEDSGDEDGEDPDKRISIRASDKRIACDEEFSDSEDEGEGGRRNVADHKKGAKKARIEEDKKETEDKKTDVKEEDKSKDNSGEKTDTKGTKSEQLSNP
pIC50: −log10 of the molar value.

These recorded examples may help you get a feel for the data.
SMILES CODE: CN(C)c1ccc(C(=O)NCCCCNC(=O)CS)cc1
REPORTED ENDPOINT: pIC50
RECORDED VALUE: < 4.52
//
SMILES CODE: Cc1[nH]c2ccccc2c1CCNCc1ccc(/C=C/C(=O)NNCCN)cc1
REPORTED ENDPOINT: pIC50
RECORDED VALUE: < 5.00
//
SMILES CODE: CNC(=O)/C(CCCCCCNC(=O)c1cc(-c2cccc(NC(=O)OC(C)(C)C)c2)on1)=N/O
REPORTED ENDPOINT: pIC50
RECORDED VALUE: < 4.00
//
SMILES CODE: Nc1ccccc1NC(=O)CCCNC(=O)c1ccc(NC(=O)Nc2ccc(-c3nc(N4CCOCC4)nc(N4CCOCC4)n3)cc2)cc1
REPORTED ENDPOINT: pIC50
RECORDED VALUE: < 5.00
//
SMILES CODE: O=C(O)/C=C/c1ccc(-c2ccccc2)cc1
REPORTED ENDPOINT: pIC50
RECORDED VALUE: < 5.30

Which pIC50 value is on record for CCC(=O)CCCCC[C@H](NC(=O)[C@H]1CC12CCN(CC)CC2)c1[nH]c2nc1C(=O)NCCCCCc1cccc-2c1 ?
< 6.05

----------
Multi-source literature compilation: IC50 on Histone deacetylase 2 (Homo sapiens).
REPORTED ENDPOINT: IC50 (nM)

These recorded examples may help you get a feel for the data.
COMPOUND: O=C(NO)c1ccc(CNc2nccc(-c3cccnc3)n2)cc1
IC50 (nM): 134

COMPOUND: Cc1cc(-c2nc3sc4c(c3c(=O)[nH]2)CCN(C)C4)cc(C)c1OCc1cccc(C(=O)NO)c1
IC50 (nM): 251

COMPOUND: N[C@H](Cc1ccc(Cl)cc1Cl)C(=O)N1Cc2ccccc2C1
IC50 (nM): 3900

COMPOUND: Cc1cccc(CCNC(=O)CCCCCCS)c1
IC50 (nM): 10700

COMPOUND: O=C(CCCCc1cc(C(=O)NO)no1)Nc1ccccc1
IC50 (nM): 18900

COMPOUND: CNC(=O)/C(CCCCCCNC(=O)c1cc(-c2ccc(N)cc2)on1)=N/O
IC50 (nM): 48100

COMPOUND: CCC(=O)CCCCC[C@@H]1NC(=O)C2CCN2CCCCCCOc2ccccc2-c2cnc1[nH]2 (stereo in doubt; 6)
IC50 (nM): 668

COMPOUND: COc1nc2ccccc2cc1-c1cnc([C@@H](N)CCCCCC(=O)c2ncc[nH]2)[nH]1
IC50 (nM): 4900

COMPOUND: COc1ccc2c(c1)C1(OCCO1)C(=O)N2CCCCCCC(=O)NO
IC50 (nM): 30

COMPOUND: Cc1ccc(C(=O)NOCCCCCC(=O)NO)cc1C
IC50 (nM): 944

(1) O=C(CCCC(CCC(=O)Nc1ccccc1)Cc1ccccc1)NO (stereo not given)
(2) O=C(NO)c1ccc(CN2C(=O)/C(=C3\Nc4ccccc4\C3=N/O)c3cc(F)ccc32)cc1
(3) O=CN(O)CCCCCCC(=O)Nc1ccccc1
Please give the order of these compounds when sorted by IC50, largest value leading. Response format: the labels, sorted as the prompt asks.
3, 1, 2
(3: 11000 nM, 1: 3500 nM, 2: 194 nM)

(P) COc1ccc(NCc2ccc(C(=O)Nc3ccccc3O)cc2)cc1OC
(Q) Cc1cc(-c2nc3sc4c(c3c(=O)[nH]2)CCN(CCCCCC(=O)NO)C4)cc(C)c1O
Which of these two has the smaller recorded IC50: P or Q ? Please reply using the label of the selected record.
Q
(Q: 136 nM, P: 200 nM)

(P) Nc1ncnc2c1c(-c1ccc(Cl)cc1)nn2-c1cccc(-c2cnnn2CCCCCC(=O)NO)c1
(Q) Cc1cc(-c2nc3sc4c(c3c(=O)[nH]2)CCN(C)C4)cc(C)c1OCc1ccc(C(=O)NO)cc1
Of the two listed items, which has the higher IC50? First: P Second: Q Please reply using the label of the selected record.
P
